Attribution: patent US20250361295A1

Target: T1, human LILRB2 (human, UniProt Q8N423 22-597)
T1 construct: whole, on cells; also called hLILRB2
T1 sequence (Q8N423 22-597): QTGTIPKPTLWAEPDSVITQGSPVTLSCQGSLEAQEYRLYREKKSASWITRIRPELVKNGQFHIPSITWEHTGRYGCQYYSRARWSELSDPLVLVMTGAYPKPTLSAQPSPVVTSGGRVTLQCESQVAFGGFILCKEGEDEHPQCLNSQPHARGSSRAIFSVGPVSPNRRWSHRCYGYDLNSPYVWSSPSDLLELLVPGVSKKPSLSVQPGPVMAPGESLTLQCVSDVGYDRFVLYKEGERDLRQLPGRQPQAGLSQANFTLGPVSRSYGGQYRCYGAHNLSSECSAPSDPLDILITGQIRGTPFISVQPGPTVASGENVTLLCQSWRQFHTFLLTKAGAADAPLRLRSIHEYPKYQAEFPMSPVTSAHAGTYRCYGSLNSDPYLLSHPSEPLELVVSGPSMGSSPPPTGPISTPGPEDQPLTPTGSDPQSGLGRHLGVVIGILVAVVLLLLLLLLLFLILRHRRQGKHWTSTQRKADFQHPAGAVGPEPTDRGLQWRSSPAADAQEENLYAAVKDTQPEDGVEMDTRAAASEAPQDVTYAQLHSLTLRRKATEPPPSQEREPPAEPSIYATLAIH
Assay: FACS, 293F-hLILRB2 cells
propertyName: MFI (MFI)
Give the value in MFI but do not write MFI after it.

query: Would you mind telling me what MFI value was observed for 4-E6-E4-B12 (antibody, V domains shown, mouse monoclonal hybridoma antibody) VH: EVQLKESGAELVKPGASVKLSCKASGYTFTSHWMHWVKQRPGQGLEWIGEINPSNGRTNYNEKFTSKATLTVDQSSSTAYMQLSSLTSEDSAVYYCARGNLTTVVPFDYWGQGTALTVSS VL: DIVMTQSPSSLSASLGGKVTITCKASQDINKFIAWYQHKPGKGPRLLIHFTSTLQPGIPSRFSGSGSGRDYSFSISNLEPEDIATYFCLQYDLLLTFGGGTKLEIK ?
result: 58

query: Suppose we examine the binder 27-D11-C2-A10 (antibody, V domains shown, mouse monoclonal hybridoma antibody) VH: EVQLVESGGGLVQPGGSRKLSCAASGFTFSVFGVHWVRQAPEKGLEWVAYISSGSNTIHYADTVKGRFTISRDIPKNTLFLQMTSLRSEDTAMYYCARSSGTGAMDYWGQGTSVTVSS VL: DIQMTQSTSSLSASLGDRVSISCRASQDISNYLNWYQQKPDGAVKLLIYYTSRLHSGVPSRFSGSGSGTDYSLTISNLDQEDIATYFCQQGNTLPWTFGGGTKLELK ; what MFI value has been reported?
result: 28.3

query: # MFI lookup, item 48-E11-H7-B5 (antibody, V domains shown, mouse monoclonal hybridoma antibody) VH: EVQLVESGGGLVKPGGSLKLSCAASGFTFSSYAMSWVRQTPEKRLEWVASITIGDDTYYPDSVKGRFTISRDHAKNILYLQVSSLRSEDTAMYSCARGVNSYGSSYRYFDVWGAGTTVTVSS VL: DIVMTQSHKFMSTSVGDRVSITCKASQDVSTAVAWYQQKPGQSPKLLIYWASTRHTGVPDRFTGSGSGTDYTLTISSVQAEDLALYYCQQHYSIPFTFGAGTKLEK
result: 45.8
